Entry source: the supplement of paper PMC9170038

Tested on: MS2 coat protein
ASSAY PROCEDURE: apparent KD of MS2 coat protein; designed switch direction (-1 OFF switch, 1 ON switch): 1; higher = weaker reporter binding
COND: input ligand: none

SEQ STRING	apparent KD of MS2 coat protein
GCGAAGAGGUAAGGAUAUUCAUGGCGUAGACAUGAGGAUCACCCAUGUAGGAGACGAAUUAAAAGGGAGAAGGUACCAGGACGC [AK SSNG2-V2-16] (Eterna round: R96, puzzle: Same State NG 2)	0.286 µM
AGUCCAGCCUGAGCUGGACAAAAGCAUGUACAUGAGGAUCACCCAUGUCAUGUACAAGCUUUUUGCUCGUUUUAAAA [Zipper 46 - 13] (Eterna round: R96, puzzle: Sensor for hsa-mir-208a)	0.611 µM
UAAAAGAAUUAAGGAUAUUGAAUACAUAUGUUUAACAUGAGGAUCACCCAUGUGGGUUGCGGUAUCGAGAAGGUAAAAUAAUAG [Mat - Same State NG 2 - JL mod - D6] (Eterna round: R96, puzzle: Same State NG 2)	0.151 µM
GCGGAAACUCACAUGAGGAUCACCCAUGUUCCGGAAACGGCACAGGAUAUCUGUCCGAAAAGGUCAGAGAAGGGUGAAAUCCGC [Fiskers NG3ss - 92] (Eterna round: R96, puzzle: Same State NG 3)	0.0548 µM

* * *

Below is a list of entries, each paired with its recorded apparent KD of MS2 coat protein value.
System: MS2 coat protein
ASSAY PROCEDURE: apparent KD of MS2 coat protein; designed switch direction (-1 OFF switch, 1 ON switch): 1; higher = weaker reporter binding
COND: input ligand: none

SEQ STRING	apparent KD of MS2 coat protein
UAAUUAAGUCAAGGAUAUCACGUCGUUUAGACGUGAGAAGGUGAUUAAUACAUGAGGAUCACCCAUGUAAUACAUGAAUAAUUA [SSNG1/11-B3] (Eterna round: R96, puzzle: Same State NG 1)	64.5 nM
UCCGCUAUCUAGAAGGAUAUGCGUAUAUAAACAUGAGGAUCACCCAUGUACCGGCGAAAACCGGUGCAGAAGGUUUAGCUAGUGA [Rediin] (Eterna round: R96, puzzle: Same State 2)	359 nM
UUUGGGUGGCUGGAGGAUAUCCUGGUUGUUACAUGAGGAUCACCCAUGUGCCGCGCGGUUCGCGAGGAGAAGGCUGGCGGCCGUU (Eterna round: R96, puzzle: Same State 2)	154 nM

* * *

Known apparent KD of MS2 coat protein of a selection of sequences
Tested on: MS2 coat protein
ASSAY PROCEDURE: apparent KD of MS2 coat protein; designed switch direction (-1 OFF switch, 1 ON switch): -1; higher = weaker reporter binding
COND: input ligand: microRNA oligo, concentration not stated
READOUT LABEL: apparent KD of MS2 coat protein (nM)

SEQ STRING	TARGET OR SYSTEM	OBSERVED VALUE
UAUAUAUAGUAAGGAUAUGUAUUAGUUUUAUAAACAGAAGGUACUGACAUGAGGAUCACCCAUGUUUUAGUGUGGGCAUGUAGA [JMF's solution 74] (Eterna round: R96, puzzle: Exclusion NG 1)	MS2 coat protein	76.6
ACAUGAGGAUCACCCAUGUCUGGCUGGUCCGUCUCGGCUGUCGAGGAUAUAGCUCGGUGUCCGCGCUAGAAGGCGGGAGCUGGU [Aenatbe mod 82] (Eterna round: R96, puzzle: Exclusion NG 3)	MS2 coat protein	78
CAUUCCUAGCGAGGAUAUCAGUAAAAGGGAAGCUGAGAAGGCGCAAACAUGAGGAUCACCCAUGUCACACGCGGGUAGUUUUCC [Uslazaxe] (Eterna round: R96, puzzle: Exclusion NG 1)	MS2 coat protein	10.8
GCACGAAGUGGAGGAUAUCUGGGCGAGGAGCGCAGAGAAGGCCACAUGAGGAUCACCCAUGUUUUCCACGGAUAGCAAACGUGC [exng1 ex2.1] (Eterna round: R96, puzzle: Exclusion NG 1)	MS2 coat protein	15.2
UGAUCUAGCGGAGGAUAUACAUGAGGAUCACCCAUGUAUAGUCCAUGUGGUGACACGUGGAACAUGUAGAAGGCCGCUAGAUCU [JL ENG2 3.83] (Eterna round: R96, puzzle: Exclusion NG 2)	MS2 coat protein	24.8
AUGCUCCGUGUAGGAUAUCGCCGUAUUACUCGGCGAGAAGGACAUGAGGAUCACCCAUGUAUGUUAUUAUCACGUGUGGCGCGC [Design 46] (Eterna round: R96, puzzle: Exclusion NG 1)	MS2 coat protein	15.4
AAGUAGAGCUAAGGAUAUAUAGAGUAGUAGAAGAUAGAAGGUAGAAGUAGAAGAUGAUGAUGAAGAUGAAGUAGAUGAAGUAGA [TEST1] (Eterna round: R96, puzzle: Exclusion NG 1)	MS2 coat protein	209
GGAUAAAACUGAGGAUAUACGUAUCGCUAGCGAGUAGAAGGCAGACAUGAGGAUCACCCAUGUGAGUUCUCGAUAAGAAACACG [Prohibition 60 - Jieux - Exclusion NG 1] (Eterna round: R96, puzzle: Exclusion NG 1)	MS2 coat protein	35.5
GUGUUUCGUGUAGGAUAUGUUUGUGGGUCGCGGGCAGAAGGACAUGAGGAUCACCCAUGUUGCGGGUUCGGUUUGUGCGGGCGC [-22, -20 kcal and 14% A] (Eterna round: R96, puzzle: Exclusion NG 1)	MS2 coat protein	17.1
